Source of measurements: ChEMBL document CHEMBL1132497

Assay target: UniProt:P19327
Sequence (P19327 whole entry): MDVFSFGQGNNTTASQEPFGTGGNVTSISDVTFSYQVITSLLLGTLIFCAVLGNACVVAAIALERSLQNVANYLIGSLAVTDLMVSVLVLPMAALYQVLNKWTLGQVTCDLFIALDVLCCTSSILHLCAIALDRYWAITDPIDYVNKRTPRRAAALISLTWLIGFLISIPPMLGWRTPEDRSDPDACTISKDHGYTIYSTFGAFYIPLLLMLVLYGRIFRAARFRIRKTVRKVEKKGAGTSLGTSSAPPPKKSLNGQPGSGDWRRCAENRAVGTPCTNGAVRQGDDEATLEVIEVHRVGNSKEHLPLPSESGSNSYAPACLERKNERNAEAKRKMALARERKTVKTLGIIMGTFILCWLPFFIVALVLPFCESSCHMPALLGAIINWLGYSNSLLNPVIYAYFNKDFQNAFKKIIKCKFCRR
Assay text: Inhibitory activity against 5-hydroxytryptamine 1A receptor of rat hippocampal tissue at 1 uM
Format: tissue-based
Experimental conditions: Hippocampus
// inhibition lookup, one value per entry
# unit: % | format: bare number

> print(dat)
                                smiles.code  measured.number
1  C[C@@]12C[C@@H]3C[C@@H](CC(CC(=O)OCCCN4CCN(c5cccc(C(F)(F)F)c5)CC4)(C3)C1)C2               56

Input C[C@@]12C[C@@H]3C[C@@H](CC(CC(=O)NCCCN4CCN(c5ncccn5)CC4)(C3)C1)C2 . Output inhibition: 68

Input O=C(NCCN1CCN(C(c2ccc(Cl)cc2)c2ccc(Cl)cc2)CC1)NC12C[C@H]3C[C@@H](C1)C[C@@H](C2)C3 . Output inhibition: 9

Input O=C(N1CCN(c2ncccn2)CC1)C12C[C@H]3C[C@@H](C1)C[C@@H](C2)C3 . Output inhibition: 9
